Molecular target: METTL3/METTL14 (Homo sapiens)
Sequence (Q86U44 whole entry, species assumed): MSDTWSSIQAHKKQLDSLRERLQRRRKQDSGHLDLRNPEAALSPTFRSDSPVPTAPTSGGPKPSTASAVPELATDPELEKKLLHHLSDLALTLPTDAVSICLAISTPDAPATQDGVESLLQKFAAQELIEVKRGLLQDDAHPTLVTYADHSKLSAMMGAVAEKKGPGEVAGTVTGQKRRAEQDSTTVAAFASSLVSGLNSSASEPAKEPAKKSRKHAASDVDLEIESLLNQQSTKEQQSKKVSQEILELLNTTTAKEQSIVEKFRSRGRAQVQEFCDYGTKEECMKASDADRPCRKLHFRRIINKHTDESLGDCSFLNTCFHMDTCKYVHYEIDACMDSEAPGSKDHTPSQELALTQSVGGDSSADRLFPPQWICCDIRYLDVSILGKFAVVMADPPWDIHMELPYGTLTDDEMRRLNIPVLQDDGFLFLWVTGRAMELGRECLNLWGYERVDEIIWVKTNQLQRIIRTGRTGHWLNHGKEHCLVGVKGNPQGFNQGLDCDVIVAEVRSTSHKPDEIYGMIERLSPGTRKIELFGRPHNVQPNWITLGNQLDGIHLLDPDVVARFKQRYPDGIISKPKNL
Sequence (Q9HCE5 whole entry partner, species assumed): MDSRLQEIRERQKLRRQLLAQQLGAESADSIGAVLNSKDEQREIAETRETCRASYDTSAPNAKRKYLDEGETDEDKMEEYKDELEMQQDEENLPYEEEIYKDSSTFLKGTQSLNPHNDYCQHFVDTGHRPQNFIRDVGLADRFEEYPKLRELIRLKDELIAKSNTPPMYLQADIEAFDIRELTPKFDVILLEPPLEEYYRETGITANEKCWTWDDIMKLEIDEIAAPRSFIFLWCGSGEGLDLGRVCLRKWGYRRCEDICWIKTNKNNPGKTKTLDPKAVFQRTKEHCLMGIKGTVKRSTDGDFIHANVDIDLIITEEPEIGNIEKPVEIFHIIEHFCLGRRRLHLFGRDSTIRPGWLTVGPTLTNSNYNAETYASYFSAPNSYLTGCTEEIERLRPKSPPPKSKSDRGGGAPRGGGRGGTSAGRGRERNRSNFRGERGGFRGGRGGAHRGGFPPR
Test: METTL3-14 Standard Enzyme Assay (METTL3 biochemical assay)
Settings: METTL3 biochemical assay; read-out: METTL3 IC50
pIC50: −log10 of the molar value.
ASSAY ENDPOINT: pIC50

Observe how each entry below is paired with its result.
INPUT: Please report pIC50 for the following molecule: Nc1ccc2ccc(OC[C@H]3O[C@@H](n4cc(Br)c5c(N)ncnc54)[C@H](O)[C@@H]3O)cc2n1 [I-71]
OUTPUT: 7.00 to 8.00

INPUT: Name the recorded pIC50 of the molecule listed here: CNc1ccc2ccc(OC[C@H]3O[C@@H](n4cc(C5CCCC5)c5c(N)ncnc54)C[C@@H]3O)cc2n1 [I-30]
OUTPUT: > 8.00

INPUT: Given the molecule Nc1ncnc2c1ccn2[C@@H]1C[C@H](CCc2ccc3ccc(NCc4ccccc4)nc3c2)[C@@H](O)[C@H]1O [I-121] , write its reported pIC50.
OUTPUT: 6.00 to 7.00

INPUT: Given the molecule Nc1cccc2ccc(CC[C@H]3C[C@@H](n4ccc5c(N)ncnc54)[C@H](O)[C@@H]3O)cc12 [I-110] , write its reported pIC50.
OUTPUT: < 6.00

INPUT: Give the reported pIC50 for this molecule. Nc1ccc2ccc(NC[C@H]3C[C@@H](n4ccc5c(N)ncnc54)[C@H](O)[C@@H]3O)cc2n1 [I-109]
OUTPUT: < 6.00

INPUT: For the molecule Nc1ncnc2c1c(CO)cn2[C@@H]1O[C@H](COc2ccc3ccc(N4CCC4)nc3c2)[C@@H](O)[C@@H]1F [I-163] , give its measured pIC50 value.
OUTPUT: > 8.00

Okay, now this molecule:
INPUT: Name the recorded pIC50 of the molecule listed here: Cc1nc(N)c2ccn([C@@H]3C[C@H](CCc4ccc5ccc(N)nc5c4)[C@@H](O)[C@H]3O)c2n1 [I-119]
OUTPUT: < 6.00
